- Tested on: Calu-6
- MEASUREMENT DESCRIPTION: relative viability (nuclei count vs DMSO), 5 days (fraction); higher = more cells survive
- SETTINGS: first compound 0.08 µM
The reader will find reported relative viability values listed item by item below.
// no unit, no text: just the number

Observe how each entry below is paired with its result.
>  <COMPOUND>
CCCCCCCCCCCC1=C(O)C(=O)C=C(O)C1=O [Embelin] + CS(=O)(=O)CCNCc1ccc(-c2ccc3ncnc(Nc4ccc(OCc5cccc(F)c5)c(Cl)c4)c3c2)o1 [Lapatinib] (partner 2 µM)

>  <TGT>
Calu-6

>  <OBSERVED>
1.03

$$$$
>  <COMPOUND>
CCCCCCCCCCCC1=C(O)C(=O)C=C(O)C1=O [Embelin] + CS(=O)(=O)N1CCN(Cc2cc3nc(-c4cccc5[nH]ncc45)nc(N4CCOCC4)c3s2)CC1 [Pictilisib] (partner 1 µM)

>  <TGT>
Calu-6

>  <OBSERVED>
0.949

$$$$
>  <COMPOUND>
CCCCCCCCCCCC1=C(O)C(=O)C=C(O)C1=O [Embelin] + C[C@]1(O)C[C@@H](c2nc(-c3ccc4ccc(-c5ccccc5)nc4c3)c3c(N)nccn32)C1 [Linsitinib] (partner 1 µM)

>  <TGT>
Calu-6

>  <OBSERVED>
0.993

$$$$

Ask | Given CCCCCCCCCCCC1=C(O)C(=O)C=C(O)C1=O [Embelin] + Cc1nc(NC(=O)N2CCC[C@H]2C(N)=O)sc1-c1ccnc(C(C)(C)C(F)(F)F)c1 [Alpelisib] (partner 2 µM) , state its recorded relative viability.
Reply | 0.983

Ask | Given CCCCCCCCCCCC1=C(O)C(=O)C=C(O)C1=O [Embelin] + O=C(c1cc(Cc2n[nH]c(=O)c3ccccc23)ccc1F)N1CCN(C(=O)C2CC2)CC1 [Olaparib] (partner 8 µM) , state its recorded relative viability.
Reply | 0.589

Ask | Given CCCCCCCCCCCC1=C(O)C(=O)C=C(O)C1=O [Embelin] + C[C@@H](Oc1cc(-c2cnn(C3CCNCC3)c2)cnc1N)c1c(Cl)ccc(F)c1Cl [Crizotinib] (partner 1 µM) , state its recorded relative viability.
Reply | 0.738

###

- System: NCI-H1944
- MEASUREMENT DESCRIPTION: relative viability (nuclei count vs DMSO), 5 days (fraction); higher = more cells survive
- SETTINGS: first compound 0.8 µM
The reader will find reported relative viability values listed item by item below.

>  <COMPOUND>
CCCCCCCCCCCC1=C(O)C(=O)C=C(O)C1=O [Embelin] + Cc1nc(Nc2ncc(C(=O)Nc3c(C)cccc3Cl)s2)cc(N2CCN(CCO)CC2)n1 [Dasatinib] (partner 0.075 µM)

>  <relative viability>
0.221

$$$$
>  <COMPOUND>
CCCCCCCCCCCC1=C(O)C(=O)C=C(O)C1=O [Embelin] + O=C(c1cc(Cc2n[nH]c(=O)c3ccccc23)ccc1F)N1CCN(C(=O)C2CC2)CC1 [Olaparib] (partner 8 µM)

>  <relative viability>
0.474

$$$$
>  <COMPOUND>
CCCCCCCCCCCC1=C(O)C(=O)C=C(O)C1=O [Embelin] + C[C@@H](Oc1cc(-c2cnn(C3CCNCC3)c2)cnc1N)c1c(Cl)ccc(F)c1Cl [Crizotinib] (partner 1 µM)

>  <relative viability>
1.21

$$$$
>  <COMPOUND>
CCCCCCCCCCCC1=C(O)C(=O)C=C(O)C1=O [Embelin] + CS(=O)(=O)CCNCc1ccc(-c2ccc3ncnc(Nc4ccc(OCc5cccc(F)c5)c(Cl)c4)c3c2)o1 [Lapatinib] (partner 2 µM)

>  <relative viability>
0.908

$$$$

Ask | Given CCCCCCCCCCCC1=C(O)C(=O)C=C(O)C1=O [Embelin] + C[C@]1(O)C[C@@H](c2nc(-c3ccc4ccc(-c5ccccc5)nc4c3)c3c(N)nccn32)C1 [Linsitinib] (partner 1 µM) , state its recorded relative viability.
Reply | 1.39

###

The reader will find reported relative viability values listed item by item below.
- System: COR-L23
- MEASUREMENT DESCRIPTION: relative viability (nuclei count vs DMSO), 5 days (fraction); higher = more cells survive
- SETTINGS: first compound 0.4 µM
// no unit, no text: just the number

>  <MOLECULE>
COc1cc(N2CCC(C(N)=O)CC2)ccc1Nc1nc(N)c(Cl)c(Nc2ccccc2S(=O)(=O)C(C)C)n1 [HG-5-88-01] + CS(=O)(=O)N1CCN(Cc2cc3nc(-c4cccc5[nH]ncc45)nc(N4CCOCC4)c3s2)CC1 [Pictilisib] (partner 1 µM)

>  <relative viability>
0.608

$$$$

Ask | Given C[C@@H]1CN(CC(=O)Nc2ccc3c(c2)Cc2cccc(-c4cc(=O)cc(N5CCOCC5)o4)c2S3)C[C@H](C)O1 + Cc1nc(Nc2ncc(C(=O)Nc3c(C)cccc3Cl)s2)cc(N2CCN(CCO)CC2)n1 [Dasatinib] (partner 0.075 µM) , state its recorded relative viability.
Reply | 0.593

###

- Test system: NCI-H727
- MEASUREMENT DESCRIPTION: relative viability (nuclei count vs DMSO), 5 days (fraction); higher = more cells survive
- SETTINGS: first compound 1.265 µM
Cut-off 0.4 on relative viability: below means YES, at or above means NO.

>  <COMPOUND>
Clc1ccc(Nc2nnc(Cc3ccncc3)c3ccccc23)cc1 [Vatalanib] + O=C(CCCCCCC(=O)Nc1ccccc1)NO [Vorinostat] (partner 1 µM)

>  <GROUP LABEL>
NO

$$$$
>  <COMPOUND>
COc1cc(N2CCC(C(N)=O)CC2)ccc1Nc1nc(N)c(Cl)c(Nc2ccccc2S(=O)(=O)C(C)C)n1 [HG-5-88-01] + Cc1nc(Nc2ncc(C(=O)Nc3c(C)cccc3Cl)s2)cc(N2CCN(CCO)CC2)n1 [Dasatinib] (partner 0.075 µM)

>  <GROUP LABEL>
YES

$$$$
>  <COMPOUND>
Clc1ccc(Nc2nnc(Cc3ccncc3)c3ccccc23)cc1 [Vatalanib] + CC(=O)Nc1cccc(-n2c(=O)n(C3CC3)c(=O)c3c(Nc4ccc(I)cc4F)n(C)c(=O)c(C)c32)c1 [Trametinib] (partner 0.02 µM)

>  <GROUP LABEL>
YES

$$$$
>  <COMPOUND>
COc1cc(N2CCC(C(N)=O)CC2)ccc1Nc1nc(N)c(Cl)c(Nc2ccccc2S(=O)(=O)C(C)C)n1 [HG-5-88-01] + CC1(C)CCC(c2ccc(Cl)cc2)=C(CN2CCN(c3ccc(C(=O)NS(=O)(=O)c4ccc(N[C@H](CCN5CCOCC5)CSc5ccccc5)c(S(=O)(=O)C(F)(F)F)c4)cc3)CC2)C1 [Navitoclax] (partner 0.5 µM)

>  <GROUP LABEL>
YES

$$$$
>  <COMPOUND>
COc1cc(N2CCC(C(N)=O)CC2)ccc1Nc1nc(N)c(Cl)c(Nc2ccccc2S(=O)(=O)C(C)C)n1 [HG-5-88-01] + C[C@]1(O)C[C@@H](c2nc(-c3ccc4ccc(-c5ccccc5)nc4c3)c3c(N)nccn32)C1 [Linsitinib] (partner 1 µM)

>  <GROUP LABEL>
YES

$$$$
>  <COMPOUND>
Clc1ccc(Nc2nnc(Cc3ccncc3)c3ccccc23)cc1 [Vatalanib] + CC(=O)c1c(C)c2cnc(Nc3ccc(N4CCNCC4)cn3)nc2n(C2CCCC2)c1=O [Palbociclib] (partner 0.5 µM)

>  <GROUP LABEL>
NO

$$$$
>  <COMPOUND>
COc1cc(N2CCC(C(N)=O)CC2)ccc1Nc1nc(N)c(Cl)c(Nc2ccccc2S(=O)(=O)C(C)C)n1 [HG-5-88-01] + COc1cccc2cc(-c3nc([C@H]4CC[C@H](C(=O)O)CC4)n4ncnc(N)c34)[nH]c12 [OSI-027] (partner 0.5 µM)

>  <GROUP LABEL>
NO

$$$$

With those in mind, consider the next compound.
Ask | Lab log: compare recorded relative viability with 0.4; is it strictly lower for Clc1ccc(Nc2nnc(Cc3ccncc3)c3ccccc23)cc1 [Vatalanib] + CS(=O)(=O)CCNCc1ccc(-c2ccc3ncnc(Nc4ccc(OCc5cccc(F)c5)c(Cl)c4)c3c2)o1 [Lapatinib] (partner 2 µM) ?
Reply | NO

###

- Test system: NCI-H838
- MEASUREMENT DESCRIPTION: relative viability (nuclei count vs DMSO), 5 days (fraction); higher = more cells survive
- SETTINGS: first compound 4 µM
MEASURED ENDPOINT: relative viability
// no unit, no text: just the number

Ask | Given COc1cc(N2CCC(C(N)=O)CC2)ccc1Nc1nc(N)c(Cl)c(Nc2ccccc2S(=O)(=O)C(C)C)n1 [HG-5-88-01] + C[C@@H](Oc1cc(-c2cnn(C3CCNCC3)c2)cnc1N)c1c(Cl)ccc(F)c1Cl [Crizotinib] (partner 1 µM) , state its recorded relative viability.
Reply | 0.596

Ask | Given C[C@@H]1CN(CC(=O)Nc2ccc3c(c2)Cc2cccc(-c4cc(=O)cc(N5CCOCC5)o4)c2S3)C[C@H](C)O1 + N=C(N)NC(=N)NCCc1ccccc1 [Phenformin] (partner 250 µM) , state its recorded relative viability.
Reply | 0.374

Ask | Given C[C@@H]1CN(CC(=O)Nc2ccc3c(c2)Cc2cccc(-c4cc(=O)cc(N5CCOCC5)o4)c2S3)C[C@H](C)O1 + COc1cc2c(Oc3ccc(NC(=O)C4(C(=O)Nc5ccc(F)cc5)CC4)cc3F)ccnc2cc1OCCCN1CCOCC1 [Foretinib] (partner 0.25 µM) , state its recorded relative viability.
Reply | 0.723

Ask | Given C[C@@H]1CN(CC(=O)Nc2ccc3c(c2)Cc2cccc(-c4cc(=O)cc(N5CCOCC5)o4)c2S3)C[C@H](C)O1 + NC(=O)Nc1cc(-c2cccc(F)c2)sc1C(=O)N[C@H]1CCCNC1 [AZD7762] (partner 0.2 µM) , state its recorded relative viability.
Reply | 0.861

Ask | Given Clc1ccc(Nc2nnc(Cc3ccncc3)c3ccccc23)cc1 [Vatalanib] + C[C@@H](Oc1cc(-c2cnn(C3CCNCC3)c2)cnc1N)c1c(Cl)ccc(F)c1Cl [Crizotinib] (partner 1 µM) , state its recorded relative viability.
Reply | 0.79

Ask | Given C[C@@H]1CN(CC(=O)Nc2ccc3c(c2)Cc2cccc(-c4cc(=O)cc(N5CCOCC5)o4)c2S3)C[C@H](C)O1 + CC(=O)c1c(C)c2cnc(Nc3ccc(N4CCNCC4)cn3)nc2n(C2CCCC2)c1=O [Palbociclib] (partner 0.5 µM) , state its recorded relative viability.
Reply | 0.179

Ask | Given Clc1ccc(Nc2nnc(Cc3ccncc3)c3ccccc23)cc1 [Vatalanib] + NC(=O)Nc1cc(-c2cccc(F)c2)sc1C(=O)N[C@H]1CCCNC1 [AZD7762] (partner 0.2 µM) , state its recorded relative viability.
Reply | 0.87

Ask | Given C[C@@H]1CN(CC(=O)Nc2ccc3c(c2)Cc2cccc(-c4cc(=O)cc(N5CCOCC5)o4)c2S3)C[C@H](C)O1 + COc1cccc2cc(-c3nc([C@H]4CC[C@H](C(=O)O)CC4)n4ncnc(N)c34)[nH]c12 [OSI-027] (partner 0.5 µM) , state its recorded relative viability.
Reply | 0.288

Ask | Given COc1cc(N2CCC(C(N)=O)CC2)ccc1Nc1nc(N)c(Cl)c(Nc2ccccc2S(=O)(=O)C(C)C)n1 [HG-5-88-01] + NC(=O)Nc1cc(-c2cccc(F)c2)sc1C(=O)N[C@H]1CCCNC1 [AZD7762] (partner 0.2 µM) , state its recorded relative viability.
Reply | 0.847

Ask | Given C[C@@H]1CN(CC(=O)Nc2ccc3c(c2)Cc2cccc(-c4cc(=O)cc(N5CCOCC5)o4)c2S3)C[C@H](C)O1 + C[C@@H](Oc1cc(-c2cnn(C3CCNCC3)c2)cnc1N)c1c(Cl)ccc(F)c1Cl [Crizotinib] (partner 1 µM) , state its recorded relative viability.
Reply | 0.616

Ask | Given Clc1ccc(Nc2nnc(Cc3ccncc3)c3ccccc23)cc1 [Vatalanib] + COc1cccc2cc(-c3nc([C@H]4CC[C@H](C(=O)O)CC4)n4ncnc(N)c34)[nH]c12 [OSI-027] (partner 0.5 µM) , state its recorded relative viability.
Reply | 0.443

Ask | Given COc1cc(N2CCC(C(N)=O)CC2)ccc1Nc1nc(N)c(Cl)c(Nc2ccccc2S(=O)(=O)C(C)C)n1 [HG-5-88-01] + CC1(C)CCC(c2ccc(Cl)cc2)=C(CN2CCN(c3ccc(C(=O)NS(=O)(=O)c4ccc(N[C@H](CCN5CCOCC5)CSc5ccccc5)c(S(=O)(=O)C(F)(F)F)c4)cc3)CC2)C1 [Navitoclax] (partner 0.5 µM) , state its recorded relative viability.
Reply | 0.904

Ask | Given C[C@@H]1CN(CC(=O)Nc2ccc3c(c2)Cc2cccc(-c4cc(=O)cc(N5CCOCC5)o4)c2S3)C[C@H](C)O1 + C[C@]1(O)C[C@@H](c2nc(-c3ccc4ccc(-c5ccccc5)nc4c3)c3c(N)nccn32)C1 [Linsitinib] (partner 1 µM) , state its recorded relative viability.
Reply | 0.688

Ask | Given COc1cc(N2CCC(C(N)=O)CC2)ccc1Nc1nc(N)c(Cl)c(Nc2ccccc2S(=O)(=O)C(C)C)n1 [HG-5-88-01] + Nc1ncn([C@H]2C[C@H](O)[C@@H](CO)O2)c(=O)n1 [Decitabine] (partner 2 µM) , state its recorded relative viability.
Reply | 0.341

Ask | Given Clc1ccc(Nc2nnc(Cc3ccncc3)c3ccccc23)cc1 [Vatalanib] + Nc1ncn([C@H]2C[C@H](O)[C@@H](CO)O2)c(=O)n1 [Decitabine] (partner 2 µM) , state its recorded relative viability.
Reply | 0.448

Ask | Given Clc1ccc(Nc2nnc(Cc3ccncc3)c3ccccc23)cc1 [Vatalanib] + CCNC(=O)c1noc(-c2cc(C(C)C)c(O)cc2O)c1-c1ccc(CN2CCOCC2)cc1 [Luminespib] (partner 0.01 µM) , state its recorded relative viability.
Reply | 0.378

Ask | Given Clc1ccc(Nc2nnc(Cc3ccncc3)c3ccccc23)cc1 [Vatalanib] + COc1cc2c(Oc3ccc(NC(=O)C4(C(=O)Nc5ccc(F)cc5)CC4)cc3F)ccnc2cc1OCCCN1CCOCC1 [Foretinib] (partner 0.25 µM) , state its recorded relative viability.
Reply | 1.01
